Target: DHX33 protein (Mus musculus)
Construct: purified full-length DHX33 protein
Sequence (Q80VY9 whole entry): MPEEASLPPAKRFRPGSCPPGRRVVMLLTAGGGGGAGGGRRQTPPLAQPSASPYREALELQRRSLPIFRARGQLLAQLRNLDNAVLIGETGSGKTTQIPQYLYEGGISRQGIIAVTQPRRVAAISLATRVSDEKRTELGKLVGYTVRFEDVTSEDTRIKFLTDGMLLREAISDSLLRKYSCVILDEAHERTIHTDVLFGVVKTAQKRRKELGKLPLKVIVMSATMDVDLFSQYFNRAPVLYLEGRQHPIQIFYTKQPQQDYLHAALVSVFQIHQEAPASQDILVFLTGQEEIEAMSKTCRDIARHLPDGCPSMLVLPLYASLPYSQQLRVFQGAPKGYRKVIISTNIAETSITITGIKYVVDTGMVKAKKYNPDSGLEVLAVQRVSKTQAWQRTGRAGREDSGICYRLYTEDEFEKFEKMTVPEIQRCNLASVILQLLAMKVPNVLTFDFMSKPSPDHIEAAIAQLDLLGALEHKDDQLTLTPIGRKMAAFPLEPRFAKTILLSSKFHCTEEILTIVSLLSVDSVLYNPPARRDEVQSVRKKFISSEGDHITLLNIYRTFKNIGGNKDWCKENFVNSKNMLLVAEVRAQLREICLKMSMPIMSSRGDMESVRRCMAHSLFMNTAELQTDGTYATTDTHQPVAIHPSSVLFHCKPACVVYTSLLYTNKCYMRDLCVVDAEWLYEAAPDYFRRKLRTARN
Assay: Inhibition of the helicase activity of DHX33 protein in vitro
Settings: recombinant DHX33 protein, compound 1-1000 nM, 37° C., 60 minutes; read-out: IC50 (inhibitory effects of the compounds on the helicase activity of DHX33 protein)
pIC50: −log10 of the molar value.
This listing pairs compounds with measured pIC50.

As a guide, the following entries are already answered.
So what's the measured pIC50 for this one? COC(=O)c1cc(C)c(-n2c(C)cc(/C=C(\C#N)c3nc4cc(OC)ncc4[nH]3)c2C)s1
7.00 to 7.70

So what's the measured pIC50 for this one? Cc1sc(-n2c(C)cc(/C=C(\C#N)c3nc4ccccc4[nH]3)c2C)c(C#N)c1C
6.40 to 7.00

So what's the measured pIC50 for this one? CCOC(=O)c1nc(C)sc1-n1c(C)cc(/C=C(\C#N)c2nc3cc(OC)ncc3[nH]2)c1C
7.00 to 7.70

So what's the measured pIC50 for this one? COc1ccn2c(c1)nc1cc(-c3cc(C)n(-c4sc(C)cc4C#N)c3C)ccc12
7.00 to 7.70

So what's the measured pIC50 for this one? COc1cc2nc(/C(C#N)=C/c3cc(C)n(Cc4cccs4)c3C)[nH]c2cn1
> 7.70

---
So what's the measured pIC50 for this one? COc1cc2nc(/C(C#N)=C/c3cc(C)n([C@@H](C)c4ccccc4)c3C)[nH]c2cn1
> 7.70

So what's the measured pIC50 for this one? COC(=O)c1c(-n2c(C)cc(/C=C(\C#N)c3nc4ccc(OC)cc4[nH]3)c2C)sc(C)c1C
6.40 to 7.00

So what's the measured pIC50 for this one? Cc1oc(-n2c(C)cc(/C=C(\C#N)c3nc4ccc(F)cc4[nH]3)c2C)c(C#N)c1C
6.40 to 7.00

So what's the measured pIC50 for this one? Cc1oc(-n2c(C)cc(/C=C(\C#N)c3nc4ccncc4[nH]3)c2C)c(C#N)c1C
6.40 to 7.00

So what's the measured pIC50 for this one? Cc1cc(/C=C(\C#N)c2nc3ccccc3[nH]2)c(C)n1-c1ccncc1
6.40 to 7.00

So what's the measured pIC50 for this one? COc1cc2nc(/C(C#N)=C/c3cc(C)n(-c4sc(C)nc4C(N)=O)c3C)[nH]c2cn1
7.00 to 7.70

So what's the measured pIC50 for this one? COc1ccc2cc(NC(=O)c3cc(C)n(-c4sc(C)nc4C#N)c3C)[nH]c2c1
> 7.70

So what's the measured pIC50 for this one? COc1ccc2nc(/C(C#N)=C/c3cc(C)n(-c4oc(C)c(C)c4C#N)c3C)[nH]c2c1
7.00 to 7.70

So what's the measured pIC50 for this one? COc1ccc2nc(NC(=O)c3cc(C)n(-c4sc(C)cc4C#N)c3C)[nH]c2c1
> 7.70

So what's the measured pIC50 for this one? Cc1oc(-n2c(C)cc(/C=C(\C#N)c3nc4ccc(C(F)(F)F)cc4[nH]3)c2C)c(C#N)c1C
6.40 to 7.00

So what's the measured pIC50 for this one? COc1cc2nc(/C(C#N)=C/c3cc(C)n(-c4sc(-c5ccccn5)cc4C#N)c3C)[nH]c2cn1
6.40 to 7.00

So what's the measured pIC50 for this one? COc1ccc2c(c1)[nH]c1cc(-c3cc(C)n(-c4sc(C)cc4C#N)c3C)ccc12
6.40 to 7.00
